Activity listing for selected compounds.
Target: Vitamin D3 receptor (Sus scrofa domesticus)
Sequence (whole entry): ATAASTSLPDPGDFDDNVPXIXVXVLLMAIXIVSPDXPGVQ
Test: The affinity to the pig intestinal mucosa vitamin D receptor was evaluated in vitro, results expressed as percentage activity at 50% dose response
Type: tissue-based
For clarity, give the value followed by its unit.

Solved entries:
Which value of Activity has been reported for C=C1/C(=C\C=C2/CCC[C@]3(C)[C@@H]([C@H](C)CCCC(C)(C)O)CC[C@@H]23)C[C@@H](O)C[C@@H]1O [CALCITRIOL] in the records?
100%

Which value of Activity has been reported for `CC(C)(O)C(F)(F)C/C=C\[C@@]1(C)CC[C@@H](/C=C/C=C2C[C@@H](O)C[C@H](O)C2)C1(C)C` in the records?
70%

# context switch: different compound, same Activity
Which value of Activity has been reported for `C=C1C(=CC=C[C@@H]2CC[C@](C)(CCCCC(O)(CC)CC)C2(C)C)C[C@@H](O)C[C@@H]1O` in the records?
80%
